Value source: ChEMBL document CHEMBL3867469

Biological target: UniProtKB P13631
Sequence (P13631 whole entry): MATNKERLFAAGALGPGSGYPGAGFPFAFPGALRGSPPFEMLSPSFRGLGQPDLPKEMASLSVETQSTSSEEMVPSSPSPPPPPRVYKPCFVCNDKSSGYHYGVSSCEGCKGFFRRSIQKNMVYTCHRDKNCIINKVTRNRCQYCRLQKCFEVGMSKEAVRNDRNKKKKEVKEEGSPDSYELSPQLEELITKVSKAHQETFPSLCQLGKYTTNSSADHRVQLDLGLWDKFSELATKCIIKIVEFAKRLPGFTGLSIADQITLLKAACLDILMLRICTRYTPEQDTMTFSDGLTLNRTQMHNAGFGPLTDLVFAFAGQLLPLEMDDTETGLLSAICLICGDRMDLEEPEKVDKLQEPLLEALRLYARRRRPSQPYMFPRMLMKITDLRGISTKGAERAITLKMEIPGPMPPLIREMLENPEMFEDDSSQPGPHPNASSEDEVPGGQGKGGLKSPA
pIC50: −log10 of the molar value.

# CHEMICAL_STRUCTURE, TEST_SYSTEM, pIC50
rows = [
    ("CCS(=O)(=O)c1ccc(CC(=O)Nc2nc(-c3cccc(Cl)c3)c(C(=O)c3ccccc3Cl)s2)cc1", "UniProtKB P13631", "< 5.00"),
    ("O=C(O)c1ccc(-n2nc(Oc3c(Cl)cccc3Cl)c3ccccc32)cn1", "UniProtKB P13631", "< 5.00"),
    ("O=C(O)c1ccc(-n2nc(Oc3c(Cl)cccc3Cl)c3cccnc32)cc1", "UniProtKB P13631", 5.42),
    ("O=C(O)c1ccc(-n2nc(Sc3c(Cl)cccc3Cl)c3cc(C(=O)N4CC(F)(F)C4)ccc32)cc1", "UniProtKB P13631", "< 5.00"),
    ("CN(C)C(=O)c1ccc2c(c1)c(Nc1c(Cl)cccc1Cl)nn2-c1ccc(C(=O)O)cc1", "UniProtKB P13631", "< 5.00"),
    ("CN(C)C(=O)c1ccc2c(c1)c(Sc1cccc(Cl)c1Cl)nn2-c1ccc(C(=O)O)cc1", "UniProtKB P13631", "< 5.00"),
    ("O=C(O)c1ccc(-n2nc(Sc3c(Cl)cccc3Cl)c3cc(C(=O)N4CCOCC4)ccc32)cc1", "UniProtKB P13631", 5.38),
    ("Cc1cccc(C)c1Sc1nn(-c2ccc(C(=O)O)cc2)c2ccc(C(=O)N(C)C)cc12", "UniProtKB P13631", "< 5.00"),
    ("Cc1cc(C)c(Sc2nn(-c3ccc(C(=O)O)cc3)c3ccc(C(=O)N(C)C)cc23)c(C)c1", "UniProtKB P13631", "< 5.00"),
    ("O=C(O)c1cc(F)c(-n2nc(Oc3c(Cl)cccc3Cl)c3ccccc32)c(F)c1", "UniProtKB P13631", "< 5.00"),
    ("Cc1ccccc1Sc1nn(-c2ccc(C(=O)O)cc2)c2ccc(C(=O)N(C)C)cc12", "UniProtKB P13631", "< 5.00"),
    ("O=C(O)c1ccc(-n2nc(Oc3c(Cl)cccc3Cl)c3ccccc32)nc1", "UniProtKB P13631", 5.72),
    ("Cc1cccc2c(Oc3c(Cl)cccc3Cl)nn(-c3ccc(C(=O)O)cc3)c12", "UniProtKB P13631", "< 5.00"),
]
